# experimental-details: inhibitor activity on non-replicating M. tuberculosis, dose response, plate reader, dry powder (AID 743175)
# condition-notes: Mycobacterium tuberculosis non-replicating, growth inhibition plate reader; at 23.5 µM (top of the series)
The source made the active and inactive calls. The rule behind the calls is not given here.
measure-name: activity change, negative = inhibition

INSERT INTO assay_data (molecular_string, result) VALUES
  ('Cc1noc(C)c1NC(=O)Nc1ccc2c(c1)C(=O)N(C)[C@@H]1CC[C@@H](CC(=O)NCc3ccc(Cl)cc3)O[C@H]1CO2', '-4.47% (inactive)'),
  ('C[C@H](C(=O)N(C)C[C@@H]1OCc2ccccc2-c2ccccc2C(=O)N([C@H](C)CO)C[C@H]1C)c1ccccc1', '-2.02% (inactive)'),
  ('Cc1noc(C)c1NC(=O)Nc1ccc2c(c1)C(=O)N(C)[C@H]1CC[C@@H](CC(=O)NCc3ccc(Cl)cc3)O[C@@H]1CO2', '-7.13% (inactive)'),
  ('Cc1noc(C)c1NC(=O)Nc1ccc2c(c1)C(=O)N(C)[C@@H]1CC[C@H](CC(=O)NCc3ccc(Cl)cc3)O[C@H]1CO2', '-0.708% (inactive)');

###

The reader will find reported activity change, negative = inhibition values listed item by item below.
# experimental-details: inhibitor activity on non-replicating M. tuberculosis, dose response, plate reader, dry powder (AID 743175)
# condition-notes: Mycobacterium tuberculosis non-replicating, growth inhibition plate reader; at 38 µM (top of the series)
Active and inactive are the calls of the source. How the calls were made is not given here.
measure-name: activity change, negative = inhibition

INSERT INTO measurements (molecule, result) VALUES
  ('O=C(OCc1ccc(Cl)c(Cl)c1)c1ccccn1', '-7.55% (inactive)'),
  ('NC(=O)COc1ccc2cc(-c3ccc(F)cc3)c(=O)oc2c1', '-7.91% (inactive)'),
  ('CCCC(C)C(=O)Nc1ccc(Cl)cn1 (centres undefined)', '-14.4% (inactive)'),
  ('CC(=O)c1ccc(NC(=O)c2cc(CC(C)C)on2)cc1', '-14.7% (inactive)'),
  ('Fc1ccc(-c2ccc(CNCc3ccccn3)o2)cc1Cl', '-52% (inactive)'),
  ('CCCOC(=O)c1ccc(NC(=O)c2ccc(Br)o2)cc1', '-12.8% (inactive)'),
  ('C=CCn1c(NC(=O)c2ccccc2)nc2ccccc21', '-76.7% (inactive)'),
  ('O=C(OCCCCN1C(=O)c2ccccc2C1=O)c1ccc(Br)o1', '-2.9% (inactive)'),
  ('CCOC(=O)c1c(C)n(C)c2ccc(OC(C)C(=O)OC)cc12 (centres undefined)', '-6.52% (inactive)');

###

The reader will find reported activity change, negative = inhibition values listed item by item below.
# experimental-details: inhibitor activity on non-replicating M. tuberculosis, dose response, plate reader, dry powder (AID 743175)
# condition-notes: Mycobacterium tuberculosis non-replicating, growth inhibition plate reader; at 23.5 µM (top of the series)
measure-name: activity change, negative = inhibition (%)

INSERT INTO assay_data (molecular_string, measure_name, measured_number) VALUES
  ('O=C(C[C@@H]1C=C[C@H](NC(=O)Nc2cc(F)ccc2F)[C@H](CO)O1)NCc1ccc2c(c1)OCO2', 'activity change, negative = inhibition', -1.22),
  ('COCCNC(=O)C[C@@H]1C[C@@H]2c3cc(NC(=O)Nc4ccc(C(F)(F)F)cc4)ccc3O[C@@H]2[C@H](CO)O1', 'activity change, negative = inhibition', 6.32),
  ('CNC[C@H]1OCCCC[C@@H](C)Oc2ccc(NC(=O)CCCN(C)C)cc2C(=O)N([C@H](C)CO)C[C@@H]1C', 'activity change, negative = inhibition', 0.469),
  ('C[C@@H]1CN([C@@H](C)CO)C(=O)c2ccccc2-c2ccccc2CO[C@H]1CN(C)C(=O)[C@H](C)c1ccccc1', 'activity change, negative = inhibition', 6.24),
  ('O=C(C[C@@H]1C=C[C@@H](NC(=O)Nc2cc(F)ccc2F)[C@@H](CO)O1)NCc1ccc2c(c1)OCO2', 'activity change, negative = inhibition', 2.62),
  ('Cc1noc(C)c1NC(=O)Nc1ccc2c(c1)C(=O)N(C)[C@H]1CC[C@H](CC(=O)NCc3ccc(Cl)cc3)O[C@H]1CO2', 'activity change, negative = inhibition', -5.96);

Reference source: PubChem BioAssay AID743175
